# credit: the supplement of paper PMC11451515

Test system: SEM cells
Assay: cell viability relative to DMSO control; higher = less cytotoxic
Conditions: RPMI 5 mM glucose + 10% dialyzed FBS; 48 h; 0.00234 µM
Provide the recorded cell viability for the entries that follow.
Numbers only, in %.

Worked examples follow.
molecule: Clc1ccc(COC(Cn2ccnc2)c2ccc(Cl)cc2Cl)cc1 (stereo unspecified)
cell viability [%]: 78.8

molecule: CC1=C(/C=C/C(C)=C/C=C/C(C)=C/C(=O)Nc2ccc(O)cc2)C(C)(C)CCC1
cell viability [%]: 71.5

molecule: COc1cc(N2CCC(N3CCN(C)CC3)CC2)ccc1Nc1ncnc(Nc2ccccc2[S+](=O)([O-])C(C)C)n1
cell viability [%]: 90.2

molecule: CC1(C)OC/2=C(\[C@H](NCC3=CC=CC=C3)[C@@H]1O)C(=O)C4=CC=CC=C4C2=O
cell viability [%]: 74.4

molecule: COc1ccc([C@@H]2CNC(=O)C2)cc1OC1CCCC1
cell viability [%]: 94.3

Give one value of cell viability per listed molecule.
1. CN(C(=O)c1ccc(F)cc1C(F)(F)F)C1CCN(c2nnc(-c3ccnn3C)c3ccccc23)CC1
2. O=C(Oc1ccc([N+](=O)[O-])cc1)N1CCN(Cc2cccc(Oc3ccccc3)c2)CC1

Reply:
1: 61.4; 2: 108

Answer for every listed entry: what is its cell viability? The entries follow.
1. CCOC(=O)c1ncn2c1CN(C)C(=O)c1cc(F)ccc1-2
2. Cc1cnc(Nc2ccc(OCCN3CCCC3)cc2)nc1Nc1cccc([S+](=O)([O-])NC(C)(C)C)c1
3. CC1=C(C)C2=C(S1)[N]3C(=NN=C3[C@H](CC(=O)OC(C)(C)C)/N=C2/C4=CC=C(Cl)C=C4)C
4. CC(C)(O)CNc1nc(Nc2ccnc(C(F)(F)F)c2)nc(-c2cccc(C(F)(F)F)n2)n1
5. CC(=O)SCC(Cc1ccccc1)C(=O)NCC(=O)OCc1ccccc1 (stereo unspecified)

Reply:
107
97.3
103
89.8
77.6

Please report cell viability for every entry that follows.
1. Cc1nc2c([nH]1)-c1ccccc1N(C(=O)c1ccc(NC(=O)c3ccccc3-c3ccccc3)cc1)CC2
2. CNC(=O)c1c(F)cccc1Nc1nc(Nc2cc3c(cc2OC)CCN3C(=O)CN(C)C)nc2[nH]ccc12

Reply:
1. 143
2. 96.8

----------
System: SEM cells
Assay: AUC of viability dose-response curve (% viability x log10 dose units); higher = less sensitive
Details: RPMI 5 mM glucose + 10% dialyzed FBS; 48 h
Would you mind telling me the reported AUC of viability dose-response curve of each entry?
Give bare numbers.

Required: AUC of viability dose-response curve, one value per compound below.
1. CC(C)(Cc1ccc2ccccc2c1)NC[C@@H](O)COc1cccc(Cl)c1C#N
2. COc1cc(/C=C/C(=O)CC(=O)/C=C/c2ccc(O)c(OC)c2)ccc1O
3. Cc1cc(SCc2sc(-c3ccc(C(F)(F)F)c(F)c3)nc2C)ccc1OCC(=O)O
4. Cn1cc(-c2ccncc2)c(-c2ccc(OCc3ccc4ccccc4n3)cc2)n1
5. CCc1cc(/C(C)=N/OCc2ccc(C3CCCCC3)c(C(F)(F)F)c2)ccc1CN1CC(C(=O)O)C1

Reply:
[438, 417, 446, 465, 463]

----------
Tested on: SEM cells
Experiment: cell viability relative to DMSO control; higher = less cytotoxic
Conditions: RPMI 5 mM glucose + 10% dialyzed FBS; 48 h; 0.19 µM
reportedMetric: cell viability (%)
Answers are plain numbers, in %.

Use these answered entries as a reference point.
compound: CN1C(=O)COc2c(C(=O)NC3CN4CCC3CC4)cc(Cl)cc21 (centres undefined)
targetOrSystem: SEM cells
cell viability / %: 126
--
compound: COc1ccc(-c2c(-c3ccc(O)cc3O)n[nH]c2C)cc1
targetOrSystem: SEM cells
cell viability / %: 108
--
compound: CCCCc1oc2ccc(NS(C)(=O)=O)cc2c1C(=O)c1ccc(OCCCN(CCCC)CCCC)cc1
targetOrSystem: SEM cells
cell viability / %: 99.3

For each listed entry, give its cell viability.
1. CCCn1c(=O)c2[nH]c(C34CC5CC3C[C@@H](C5)C4)nc2n(CCC)c1=O
2. Cn1cc(-c2ccncc2)c(-c2ccc(OCc3ccc4ccccc4n3)cc2)n1
3. CO[C@@H]1[C@H](N(C)C(=O)c2ccccc2)C[C@H]2O[C@]1(C)n1c3ccccc3c3c4c(c5c6ccccc6n2c5c31)C(=O)NC4
4. CN(C(=O)c1ccc(F)cc1C(F)(F)F)C1CCN(c2nnc(-c3ccnn3C)c3ccccc23)CC1

Reply:
110
102
85.5
80.4

----------
Assignment: determine reported cell viability for the given compounds.
Tested on: P12-Ichikawa
Assay: cell viability relative to DMSO control; higher = less cytotoxic
Conditions: HPLM + 10% dialyzed FBS; 48 h; 0.19 µM
Numbers only, in %.

Use these answered entries as a reference point.
molSmiles: CC1=C(C)C2=C(S1)[N]3C(=NN=C3[C@H](CC(=O)OC(C)(C)C)/N=C2/C4=CC=C(Cl)C=C4)C
cell viability (%): 79.5
--
molSmiles: COC(=O)N[C@H](C(=O)N[C@@H](Cc1ccccc1)[C@@H](O)CN(Cc1ccc(-c2ccccn2)cc1)NC(=O)[C@@H](NC(=O)OC)C(C)(C)C)C(C)(C)C
cell viability (%): 118
--
molSmiles: Cn1cc(-c2ccncc2)c(-c2ccc(OCc3ccc4ccccc4n3)cc2)n1
cell viability (%): 123
--
molSmiles: OC1=C(C=CC=C1)C2=CC=C(C=C2)C3=CSC4=C3C(=C(/C#N)C(=O)N4)/O
cell viability (%): 119
--
molSmiles: CC1(C)O[C@H]2CC(=O)OC[C@]23[C@H]2CC[C@@]4(C)[C@H](c5ccoc5)OC(=O)[C@H]5O[C@]54[C@]2(C)C(=O)C[C@@H]13
cell viability (%): 110
--
molSmiles: Nc1ccc([S+](=O)([O-])Nc2ccccn2)cc1
cell viability (%): 117

Please supply cell viability for each of the following items, keeping them in order.
1. Cl.Cl.Fc1ccc(C(OCCN2CCN(CCCc3ccccc3)CC2)c2ccc(F)cc2)cc1
2. CCOC(=O)c1ncn2c1CN(C)C(=O)c1cc(F)ccc1-2

Reply:
1. 109
2. 107

----------
Tested on: SEM cells
Test: cell viability relative to DMSO control; higher = less cytotoxic
Settings: RPMI 5 mM glucose + 10% dialyzed FBS; 48 h; 0.00702 µM
Please respond with reported cell viability for every item in the list.
Numbers only, in %.

Solved entries (count: 5):
molecule: CC1(C)O[C@H]2CC(=O)OC[C@]23[C@H]2CC[C@@]4(C)[C@H](c5ccoc5)OC(=O)[C@H]5O[C@]54[C@]2(C)C(=O)C[C@@H]13
valueObserved: 97.5
//
molecule: C[C@H]1[C@@H](CC(C[C@H]2O[C@@H]3O[C@]4(C)CC[C@H]5[C@H](C)CC[C@@H]([C@H]2C)[C@@]35OO4)C[S+](=O)([O-])c2ccc(COC(=O)N(C)C)cc2)O[C@@H]2O[C@]3(C)CC[C@H]4[C@H](C)CC[C@@H]1[C@@]24OO3
valueObserved: 94.1
//
molecule: Nc1ccc([S+](=O)([O-])Nc2ccccn2)cc1
valueObserved: 100
//
molecule: N=C(N)c1ccc(OCCCCCOc2ccc(C(=N)N)cc2)cc1
valueObserved: 146
//
molecule: CC1OC(OC/2=C(/OC3=C(C(=CC(=C3)O)O)C2=O)C4=CC=C(O)C=C4)C(O)C(OC(C)=O)C1OC(C)=O (centres undefined)
valueObserved: 114

Quick one: give me cell viability for each item below, same order please.
1. CN[C@@H](C)C(=O)N[C@H]1CCCC[C@H]2CC[C@@H](C(=O)N[C@@H](c3ccccc3)c3cn(CCCCc4ccc(CCCCn5cc([C@@H](NC(=O)[C@@H]6CC[C@@H]7CCCC[C@H](NC(=O)[C@H](C)NC)C(=O)N76)c6ccccc6)nn5)cc4)nn3)N2C1=O
2. CC(C)c1ccc2oc3nc(N)c(C(=O)O)cc3c(=O)c2c1
3. CN(C(=O)c1ccc(F)cc1C(F)(F)F)C1CCN(c2nnc(-c3ccnn3C)c3ccccc23)CC1
4. COC1=C(OC)C(=O)C(C/C=C(\C)CC/C=C(\C)CC/C=C(\C)CC/C=C(\C)CC/C=C(\C)CC/C=C(\C)CC/C=C(\C)CC/C=C(\C)CC/C=C(\C)CCC=C(C)C)=C(C)C1=O

Reply:
[82, 134, 61.9, 120]

Count: 5. Required value per item: cell viability.
1. Cc1c(OCC(F)(F)F)ccnc1C[S+]([O-])c1nc2ccccc2[nH]1 (centres undefined)
2. c1cc(-c2sc(-c3ccncc3)c(-c3ccncc3)c2-c2ccncc2)ccn1
3. Cn1c(=O)c2c(ncn2CC(O)CO)n(C)c1=O (centres undefined)
4. COc1cc2ncnc(Nc3ccc(F)c(Cl)c3)c2cc1OCCCN1CCOCC1
5. CC(C)(O)CNc1nc(Nc2ccnc(C(F)(F)F)c2)nc(-c2cccc(C(F)(F)F)n2)n1

Reply:
112
118
99.3
125
112
